Tested on: MALME-3M melanoma
EXPERIMENT: NCI-60 one-dose screen, 48 h (100 = growth as untreated, 0 = no growth, -100 = all killed)
APPLIED_CONDITIONS: 10 µM unless noted
The panel holds about 83,000 compounds, 20% with a hit somewhere; the sample as a whole holds those more often. Active and inactive are the calls of the source. The calls were made as follows: active = growth percent below 10; inactive = the rest.
OBSERVATION_TYPE: growth

Some solved cases for reference:
Cc1cc(C)nc(SC2=C(Nc3ccc(O)cc3)C(=O)N(Cc3ccccc3)C2=O)n1 = 102% [40 µM] (inactive)
Oc1ccccc1-c1nnc(CNc2ccc(Cl)cc2)o1 = 44% (inactive)
Cn1cc(-c2nonc2-c2c[nH]c3ccc(F)cc23)c2cccnc21 = 93.4% (inactive)
O=C(Oc1cccnc1)c1ccsc1Nc1ccnc(C(F)(F)F)c1 = 84.9% (inactive)
c1ccc(CCNc2ncnc3[nH]ncc23)cc1 = 114% (inactive)

Pending compound:
Given item COc1ccc(C(=S)N2CCN(c3cccc(Cl)c3)CC2)cc1 , the value recorded as its growth is 138% (inactive)
